- TARGET OR SYSTEM: T1, Human OSCAR-ECD (recombinant extracellular domain of human OSCAR) (human, UniProt Q8IYS5 19-218)
- T1 construct: also called OSACAR-ECD
- T1 chain: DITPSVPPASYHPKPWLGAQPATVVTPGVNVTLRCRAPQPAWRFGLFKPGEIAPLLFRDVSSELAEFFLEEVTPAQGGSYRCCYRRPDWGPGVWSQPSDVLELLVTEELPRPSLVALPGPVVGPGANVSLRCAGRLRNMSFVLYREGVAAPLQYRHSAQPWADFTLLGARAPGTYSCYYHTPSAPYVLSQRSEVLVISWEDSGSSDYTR
- EXPERIMENT NOTES: SPR (Biacore T100), mAb coupled or captured on chip, OSCAR-ECD injected, 1:1 fit
MEASURE NAME: pKd
Remember the convention: pKd equals -log10 of concentration in molar.

I have this binder here, 7F6A1 (antibody, V domains shown, Mouse anti-human OSCAR mAb; The heavy chain entry covers only VH-CH1 and the start of the hinge) VH: DVKLVESGGGLVKPGGSLKLSCAASGFTFSSYVMSWVRQTPEKRLEWVATISSGGSYTYYPDSVKGRFTISRDNAKNTLYLQMSSLKSEDTAMYYCTREGGNSPDYWGQGTTLTVSS VL: ENVLTQSPAIMSASPGEKVTMTCSVSSSISYMHWYRQKSFTSPQLWIYDTSKLASGVPGRFSGSGSGISYSLTISSMEAEDVATYYCFQGSEYPLTFGAGTKLELKR , and I need its recorded pKd.
8.57
